# target: PI3Kα (Homo sapiens, UniProt P42336)
# Sequence (P42336 whole entry): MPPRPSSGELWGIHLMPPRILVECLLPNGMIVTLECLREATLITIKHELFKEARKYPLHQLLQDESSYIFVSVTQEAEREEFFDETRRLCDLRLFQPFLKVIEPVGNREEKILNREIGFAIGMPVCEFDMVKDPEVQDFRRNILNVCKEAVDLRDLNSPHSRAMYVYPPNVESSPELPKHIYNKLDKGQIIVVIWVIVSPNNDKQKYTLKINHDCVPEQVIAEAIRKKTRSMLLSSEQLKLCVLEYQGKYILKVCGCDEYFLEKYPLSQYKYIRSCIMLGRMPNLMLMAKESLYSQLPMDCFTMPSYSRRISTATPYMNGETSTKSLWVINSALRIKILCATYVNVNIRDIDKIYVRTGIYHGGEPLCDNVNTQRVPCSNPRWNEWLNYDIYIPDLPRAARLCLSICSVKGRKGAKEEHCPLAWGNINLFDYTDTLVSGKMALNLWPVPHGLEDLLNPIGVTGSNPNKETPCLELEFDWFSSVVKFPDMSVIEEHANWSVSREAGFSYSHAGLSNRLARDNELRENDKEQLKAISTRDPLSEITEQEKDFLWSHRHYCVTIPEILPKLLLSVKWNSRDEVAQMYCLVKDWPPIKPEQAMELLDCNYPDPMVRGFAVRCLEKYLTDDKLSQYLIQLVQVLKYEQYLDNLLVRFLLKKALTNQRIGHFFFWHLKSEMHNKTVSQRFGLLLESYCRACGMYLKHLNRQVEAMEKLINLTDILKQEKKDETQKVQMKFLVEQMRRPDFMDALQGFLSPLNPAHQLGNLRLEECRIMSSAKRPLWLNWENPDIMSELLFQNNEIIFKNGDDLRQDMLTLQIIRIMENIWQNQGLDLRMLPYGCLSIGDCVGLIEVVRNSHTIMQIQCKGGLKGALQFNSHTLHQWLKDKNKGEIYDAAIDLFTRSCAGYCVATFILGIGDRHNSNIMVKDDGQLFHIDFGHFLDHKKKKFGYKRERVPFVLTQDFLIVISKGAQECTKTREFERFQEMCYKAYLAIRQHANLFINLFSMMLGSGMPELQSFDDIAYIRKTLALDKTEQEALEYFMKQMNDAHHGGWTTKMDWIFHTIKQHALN
# experimental-details: ADP-Glo lipid kinase assay; supported by CETSA/ITDRF-CETSA in HCT116 cells
quantity-name: IC50 (nM)
Answers are plain numbers, in nM.

IC50 for COc1ncc(-c2ccc3c(c2)N(CCCN2CCOCC2)C(=O)CO3)cc1NS(=O)(=O)c1ccc(F)cc1F ?
0.5
